# credit: paper PMC5540273

# Tested on: YSK1
# Construct: gene STK25
# Condition label: concentration: 1 μM,replicates: in singlicate; n = 1;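 note: KINOMEscan kinase panel screen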
Below: a set of entries, each annotated with reported %Inh.

[
  {
    "Molecule": "COc1ccc(Nc2nccc(N3CCC(NC(=O)c4cccc(C#N)c4)C3)n2)cc1 (stereo not shown)",
    "Output unit": "%",
    "%Inh": 0
  },
  {
    "Molecule": "CN1CCN(CCCNc2nccc(-c3c(-c4ccc(F)cc4)nn4cc(C(N)=O)ccc34)n2)CC1",
    "Output unit": "%",
    "%Inh": 22
  },
  {
    "Molecule": "c1ccc(Oc2ccc(Nc3ccnc4ccc(-c5ccccn5)cc34)cc2)cc1",
    "Output unit": "%",
    "%Inh": 0
  },
  {
    "Molecule": "FC(F)(F)c1cc(Br)cc(Nc2nccc(-c3cnn4ncccc34)n2)c1",
    "Output unit": "%",
    "%Inh": 0
  }
]

###

Below: a set of entries, each annotated with reported %Inh.
# Tested on: TRKA
# Construct: gene NTRK1
# Condition label: concentration: 1 μM,replicates: in singlicate; n = 1

[
  {
    "Compound": "O=C(Nc1n[nH]c2cc(-c3ccco3)ccc12)C1CC1",
    "%Inh (%)": 57
  },
  {
    "Compound": "COC(=O)c1cccc(NC(=O)NC2CCN(c3ccnc(Nc4cc(OC)c(OC)c(OC)c4)n3)C2)c1 (stereo not drawn)",
    "%Inh (%)": 97.1
  },
  {
    "Compound": "O=C(Nc1ccccc1)c1cccc(Oc2ccc3nccn3n2)c1",
    "%Inh (%)": 0
  },
  {
    "Compound": "C[C@@H]1CNc2c(sc3ccc4nc(-c5ccc(O)cc5)ccc4c23)C(=O)N1",
    "%Inh (%)": 7
  },
  {
    "Compound": "COC(=O)Nc1nc2cc(Oc3ccc(NC(=O)Nc4cc(C(F)(F)F)ccc4Cl)cc3)ccc2[nH]1.Cl",
    "%Inh (%)": 100
  },
  {
    "Compound": "O=C(NCC1CC1)c1ccc(-c2cc(C(=O)NC3CC3)ccc2F)cc1",
    "%Inh (%)": 14
  },
  {
    "Compound": "Cc1ccc(CC(=O)N2CCc3cc(-c4cn(C)c5ncnc(N)c45)ccc32)cc1",
    "%Inh (%)": 10
  },
  {
    "Compound": "Nc1nccc(-c2ccc3c(N)n[nH]c3c2)n1",
    "%Inh (%)": 0
  },
  {
    "Compound": "Cc1ccc(C(=O)Nc2ccc(Oc3ccc4nc(NC(=O)C5CC5)cn4c3)c(F)c2)c(=O)n1-c1ccccc1",
    "%Inh (%)": 100
  }
]

###

Below: a set of entries, each annotated with reported %Inh.
# Tested on: MAPKAPK2
# Condition label: concentration: 1 μM,replicates: in singlicate; n = 1

[
  {
    "Chemical smiles": "Cl.Cl.NC[C@H](CC1CCCCC1)NC(=O)c1ccc(-c2ccnc3[nH]ccc23)s1",
    "Target or system": "MAPKAPK2",
    "%Inh": "0%"
  },
  {
    "Chemical smiles": "FC(F)(F)c1cc(Br)cc(Nc2nccc(-c3cnn4ncccc34)n2)c1",
    "Target or system": "MAPKAPK2",
    "%Inh": "0%"
  },
  {
    "Chemical smiles": "CS(=O)(=O)c1cccc(CNc2nc(Nc3ccc4c(c3)[C@@H]3C[C@@H]4CNC3=O)ncc2C(F)(F)F)c1",
    "Target or system": "MAPKAPK2",
    "%Inh": "0%"
  },
  {
    "Chemical smiles": "COC(=O)Nc1nc2cc(Oc3ccc(NC(=O)Nc4cc(C(F)(F)F)ccc4Cl)cc3)ccc2[nH]1.Cl",
    "Target or system": "MAPKAPK2",
    "%Inh": "14%"
  }
]

###

# Tested on: WNK3
# Condition label: concentration: 1 μM,replicates: in singlicate; n = 1
Outcome measure: %Inh (%)

[
  {
    "Compound": "C[C@@H]1CNc2c(sc3ccc4nc(-c5ccncc5)ccc4c23)C(=O)N1",
    "Output unit": "%",
    "Measured value": 0
  },
  {
    "Compound": "C[C@@H](Oc1cc(-n2cnc3cc(-c4cnn(C)c4)ccc32)sc1C(N)=O)c1ccccc1Cl",
    "Output unit": "%",
    "Measured value": 97.4
  },
  {
    "Compound": "Cl.Cl.NC[C@H](CC1CCCCC1)NC(=O)c1ccc(-c2ccnc3[nH]ccc23)s1",
    "Output unit": "%",
    "Measured value": 0
  },
  {
    "Compound": "CS(=O)(=O)c1cccc(CNc2nc(Nc3ccc4c(c3)[C@@H]3C[C@@H]4CNC3=O)ncc2C(F)(F)F)c1",
    "Output unit": "%",
    "Measured value": 0
  },
  {
    "Compound": "COC(=O)c1cccc(NC(=O)NC2CCN(c3ccnc(Nc4cc(OC)c(OC)c(OC)c4)n3)C2)c1 (centres unmarked)",
    "Output unit": "%",
    "Measured value": 49
  },
  {
    "Compound": "C[C@@H]1CNc2c(sc3ccc4nc(-c5ccc(O)cc5)ccc4c23)C(=O)N1",
    "Output unit": "%",
    "Measured value": 0
  },
  {
    "Compound": "C[C@@H]1CCN(C(=O)N2CCCC2)C[C@@H]1N(C)c1ncnc2[nH]ccc12",
    "Output unit": "%",
    "Measured value": 0
  },
  {
    "Compound": "Cc1ccc(C(=O)Nc2ccc(Oc3ccc4nc(NC(=O)C5CC5)cn4c3)c(F)c2)c(=O)n1-c1ccccc1",
    "Output unit": "%",
    "Measured value": 0
  }
]

###

# Test system: CDKL5
# Condition label: concentration: 1 μM,replicates: in singlicate; n = 1
Below: a set of entries, each annotated with reported %Inh.

[
  {
    "Molecule": "O=C(Nc1cccc(Oc2ccc3nccn3n2)c1)Nc1cccc(C(F)(F)F)c1",
    "%Inh (%)": 4
  },
  {
    "Molecule": "COc1cc2ncn(-c3cc(OCC4CCCCC4)c(C(N)=O)s3)c2cc1OC [GSK204559]",
    "%Inh (%)": 0
  },
  {
    "Molecule": "C[C@@H](Oc1cc(-n2cnc3cc(-c4ccncc4)ccc32)sc1C(N)=O)c1ccccc1Cl [GSK479719]",
    "%Inh (%)": 0
  },
  {
    "Molecule": "O=C(Nc1n[nH]c2cc(-c3ccco3)ccc12)C1CC1 [SB-737447]",
    "%Inh (%)": 0
  },
  {
    "Molecule": "COc1cccc(C2=C(Nc3cccc(Cl)c3)C(=O)NC2=O)c1 [SB-341556]",
    "%Inh (%)": 0
  },
  {
    "Molecule": "CSc1nccc(-c2c(-c3ccc(F)cc3)ncn2CCCN2CCOCC2)n1.Cl [SB-217146]",
    "%Inh (%)": 11
  },
  {
    "Molecule": "Cc1ccn2nc(-c3ccc(F)cc3)c(-c3ccncc3)c2c1.Cl [GW457859]",
    "%Inh (%)": 0
  },
  {
    "Molecule": "COc1cc2c(Nc3ccc(NC(=O)c4ccccc4)cc3)ncnc2cc1OCCCN1CCOCC1 [GSK301329]",
    "%Inh (%)": 0
  },
  {
    "Molecule": "CCNCC(Cc1ccccc1)NC(=O)c1cc(Br)c(-c2ccnc3[nH]ccc23)s1.Cl.Cl (centres unmarked) [GSK1383280]",
    "%Inh (%)": 0
  },
  {
    "Molecule": "Cn1ccc2ncnc(Oc3ccc(NC(=O)Nc4cc(C(C)(C)C)on4)c(Cl)c3)c21",
    "%Inh (%)": 32
  },
  {
    "Molecule": "CC(=O)c1c(-c2ccncc2)[nH]c(-c2ccncc2)c1C [GW493036]",
    "%Inh (%)": 35
  },
  {
    "Molecule": "N#Cc1cccc(C(=O)NC2CCN(c3ccnc(Nc4ccc(F)cc4)n3)C2)c1 (centres unmarked) [GSK1379708]",
    "%Inh (%)": 6
  },
  {
    "Molecule": "Cl.Cl.NC[C@H](CC1CCCCC1)NC(=O)c1ccc(-c2ccnc3[nH]ccc23)s1 [GSK1581428]",
    "%Inh (%)": 44
  },
  {
    "Molecule": "Cn1ccc2ncnc(Oc3ccc(NC(=O)Nc4cncc(C(F)(F)F)c4)c(Cl)c3)c21",
    "%Inh (%)": 0
  },
  {
    "Molecule": "CNC(=O)c1ccccc1Nc1nc(Nc2cccc(CS(C)(=O)=O)c2)ncc1C.O=CO [GSK1520489]",
    "%Inh (%)": 0
  },
  {
    "Molecule": "COC(=O)Nc1nc2cc(Oc3ccc(NC(=O)Nc4cc(C(F)(F)F)ccc4Cl)cc3)ccc2[nH]1.Cl [GW697465]",
    "%Inh (%)": 0
  },
  {
    "Molecule": "COc1cc(Nc2nccc(N3CCC(NC(=O)c4cccc(C#N)c4)C3)n2)cc(OC)c1OC (centres unmarked) [GSK1379751]",
    "%Inh (%)": 0
  },
  {
    "Molecule": "O=C(NCC1CC1)c1ccc(-c2cc(C(=O)NC3CC3)ccc2F)cc1 [GW810445]",
    "%Inh (%)": 0
  },
  {
    "Molecule": "Cc1ccc(CC(=O)N2CCc3cc(-c4cn(C)c5ncnc(N)c45)ccc32)cc1 [GSK2634758]",
    "%Inh (%)": 0
  },
  {
    "Molecule": "c1ccc(Oc2ccc(Nc3ccnc4ccc(-c5ccccn5)cc34)cc2)cc1 [GW407034]",
    "%Inh (%)": 14
  },
  {
    "Molecule": "NC(=O)c1ccc(-c2cc3ncnc(SCC(=O)O)c3s2)cc1",
    "%Inh (%)": 0
  },
  {
    "Molecule": "O=c1[nH]cc(-c2ccc(O)cc2)c2sc(-c3ccncc3)cc12 [GSK1033723]",
    "%Inh (%)": 0
  },
  {
    "Molecule": "Cc1ccc(C(=O)Nc2ccc(Oc3ccc4nc(NC(=O)C5CC5)cn4c3)c(F)c2)c(=O)n1-c1ccccc1",
    "%Inh (%)": 0
  },
  {
    "Molecule": "COc1cccc(CNC(=O)NC2CCN(c3ccnc(Nc4cc(OC)c(OC)c(OC)c4)n3)C2)c1 (centres unmarked) [GSK1379765]",
    "%Inh (%)": 0
  },
  {
    "Molecule": "CS(=O)(=O)Nc1ccc(-c2ccnc3[nH]ccc23)cc1 [GSK993273]",
    "%Inh (%)": 0
  },
  {
    "Molecule": "CC(C)c1nc(-c2cccc(NS(=O)(=O)c3ccccc3)c2)c(-c2ccnc(Nc3ccc4c(c3)CN(C)CC4)n2)s1 [GSK1649598]",
    "%Inh (%)": 99
  },
  {
    "Molecule": "O=C(Nc1cccc(C(F)(F)F)c1)c1cccc(Oc2ccc3nccn3n2)c1",
    "%Inh (%)": 3
  },
  {
    "Molecule": "CS(=O)(=O)c1cccc(CNc2nc(Nc3ccc4c(c3)[C@@H]3C[C@@H]4CNC3=O)ncc2C(F)(F)F)c1",
    "%Inh (%)": 0
  },
  {
    "Molecule": "Cl.Nc1n[nH]c2cc(-c3ccccn3)ccc12 [GSK2189892]",
    "%Inh (%)": 0
  },
  {
    "Molecule": "Cc1nnc(-c2ccc3occ(-c4ccc(S(C)=O)cc4)c3n2)o1 (centres unmarked)",
    "%Inh (%)": 0
  },
  {
    "Molecule": "CC(C(=O)NC1CCN(c2ccnc(Nc3ccc(F)cc3)n2)C1)c1ccc(Cl)cc1 (centres unmarked) [GSK1379713]",
    "%Inh (%)": 0
  },
  {
    "Molecule": "OCCn1cc(-c2cnc3nnn(Cc4ccc5ncccc5c4)c3n2)cn1",
    "%Inh (%)": 0
  },
  {
    "Molecule": "NC(=O)Nc1sc(-c2ccc(F)cc2)cc1C(N)=O [GW789449]",
    "%Inh (%)": 0
  },
  {
    "Molecule": "O=C(Nc1ccc(Oc2ccc3nc(NC(=O)C4CC4)cn3n2)c(F)c1)c1cccn(-c2ccccc2)c1=O",
    "%Inh (%)": 0
  },
  {
    "Molecule": "Cc1n[nH]c2cc(Nc3ccnc(Nc4cccc(CN5CCOCC5)c4)n3)ccc12 [GW682569]",
    "%Inh (%)": 0
  }
]
